- subject_of_test: Bifunctional purine biosynthesis protein ATIC (Homo sapiens, UniProt P31939)
- Sequence (P31939 whole entry): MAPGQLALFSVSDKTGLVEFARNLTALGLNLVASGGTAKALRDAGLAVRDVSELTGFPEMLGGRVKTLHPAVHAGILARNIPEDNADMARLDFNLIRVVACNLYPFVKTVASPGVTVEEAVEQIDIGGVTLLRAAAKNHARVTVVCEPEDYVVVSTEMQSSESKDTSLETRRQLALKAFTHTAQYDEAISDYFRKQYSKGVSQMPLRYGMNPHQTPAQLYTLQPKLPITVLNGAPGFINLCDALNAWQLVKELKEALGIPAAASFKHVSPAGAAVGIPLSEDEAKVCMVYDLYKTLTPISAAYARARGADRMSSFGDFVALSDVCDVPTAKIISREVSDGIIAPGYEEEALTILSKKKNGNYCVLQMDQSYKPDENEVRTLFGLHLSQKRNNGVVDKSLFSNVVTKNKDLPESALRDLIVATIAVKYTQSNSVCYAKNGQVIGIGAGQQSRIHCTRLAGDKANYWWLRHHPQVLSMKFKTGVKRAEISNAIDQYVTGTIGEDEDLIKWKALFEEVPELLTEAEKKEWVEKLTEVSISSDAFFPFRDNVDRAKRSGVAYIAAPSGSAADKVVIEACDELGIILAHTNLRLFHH
- experiment_notes: Inhibition of AICAR transformylase (unknown origin)
pKi: −log10 of the molar value.
outcome_measure: pKi

smi: O=C(O)c1cc(/N=N/c2ccc(S(=O)(=O)Nc3ccccn3)cc2)ccc1O
result_value: 4.66

###

- subject_of_test: Dihydrofolate reductase (Homo sapiens)
- Sequence (P00374 whole entry): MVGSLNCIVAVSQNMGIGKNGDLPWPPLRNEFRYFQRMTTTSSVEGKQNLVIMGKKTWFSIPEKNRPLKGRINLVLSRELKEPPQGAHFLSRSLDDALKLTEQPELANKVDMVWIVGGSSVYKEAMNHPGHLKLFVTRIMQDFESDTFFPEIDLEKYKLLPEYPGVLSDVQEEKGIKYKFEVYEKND
pKi: −log10 of the molar value.
Recorded pKi, one value per entry.
outcome_measure: pKi

molecule: N[C@@H](Cc1c[nH]c2ccccc12)C(=O)O [TRYPTOPHAN]
result_value: 2.55

molecule: CC(C)Cc1ccc(C(C)C(=O)O)cc1 (stereo not drawn) [IBUPROFEN]
result_value: 3.25

molecule: N=C(N)NC(=N)NCCc1ccccc1 [PHENFORMIN]
result_value: 3.85

molecule: O=C(O)CNC(=O)c1ccccc1 [HIPPURIC ACID]
result_value: 1.77

molecule: CN(C)C(=N)NC(=N)N [METFORMIN]
result_value: 1.74

molecule: O=C(O)c1cc(-c2ccc(F)cc2F)ccc1O [DIFLUNISAL]
result_value: 4.47

molecule: O=C(O)c1cc(-c2ccccc2)ccc1O
result_value: 4.32

molecule: Cc1cccc(Nc2ccccc2C(=O)O)c1C [MEFENAMIC ACID]
result_value: 4.14
